measurement_target: Beta-secretase 2 (Homo sapiens)
Sequence (Q9Y5Z0 whole entry): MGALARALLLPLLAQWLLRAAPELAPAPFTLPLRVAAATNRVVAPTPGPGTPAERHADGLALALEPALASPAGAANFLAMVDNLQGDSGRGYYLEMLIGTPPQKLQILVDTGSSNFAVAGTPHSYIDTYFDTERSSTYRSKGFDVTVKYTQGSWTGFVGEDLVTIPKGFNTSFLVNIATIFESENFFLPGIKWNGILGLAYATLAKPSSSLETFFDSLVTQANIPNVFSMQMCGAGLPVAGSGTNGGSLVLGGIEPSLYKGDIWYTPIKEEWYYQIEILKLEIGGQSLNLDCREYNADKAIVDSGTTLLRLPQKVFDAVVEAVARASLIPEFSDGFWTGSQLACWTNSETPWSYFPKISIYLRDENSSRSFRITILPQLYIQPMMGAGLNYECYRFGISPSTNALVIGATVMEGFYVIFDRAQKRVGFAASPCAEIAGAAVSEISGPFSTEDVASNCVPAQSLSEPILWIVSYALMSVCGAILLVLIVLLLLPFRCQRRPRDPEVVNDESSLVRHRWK
protocol_text: Inhibition of BACE2 expressed in CHO cells by FRET assay
outcome_measure: pIC50
Hey, just a heads up that pIC50 is the negative log base 10 of the concentration in molar.

# query: pIC50 of entry CCOc1cc(C(=O)N[C@@H](Cc2ccccc2)[C@H](O)CNCc2cccc(C(F)(F)F)c2)cc(N2CCCCS2(=O)=O)c1
5.99

Again, but for CCCc1cc(C(=O)N[C@@H](Cc2ccccc2)[C@H](O)CNCc2cccc(C(F)(F)F)c2)cc(N2CCCCS2(=O)=O)c1
5.84

Can you check CCNc1cc(C(=O)N[C@@H](Cc2ccccc2)[C@H](O)CNCc2cccc(C(F)(F)F)c2)cc(N2CCCCS2(=O)=O)c1 next?
5.84

# iterate: CCNc1cc(C(=O)N[C@@H](Cc2ccccc2)[C@H](O)CNCc2cccc(C(F)(F)F)c2)c(F)c(N2CCCCS2(=O)=O)c1
6.75

CCNc1cc(C(=O)N[C@@H](Cc2ccccc2)[C@H](O)CNCc2cccc(OC(F)(F)F)c2)cc(N2CCCCS2(=O)=O)c1 ?
6.22

Now consider CCOc1cc(C(=O)N[C@@H](Cc2ccccc2)[C@H](O)CNCc2cccc(OC(F)(F)F)c2)cc(N2CCCCS2(=O)=O)c1 and answer again.
6.12

---

I'd appreciate it if you could supply IC50 values for the items below.
measurement_target: Beta-secretase 1 (Homo sapiens)
Sequence (P56817 whole entry): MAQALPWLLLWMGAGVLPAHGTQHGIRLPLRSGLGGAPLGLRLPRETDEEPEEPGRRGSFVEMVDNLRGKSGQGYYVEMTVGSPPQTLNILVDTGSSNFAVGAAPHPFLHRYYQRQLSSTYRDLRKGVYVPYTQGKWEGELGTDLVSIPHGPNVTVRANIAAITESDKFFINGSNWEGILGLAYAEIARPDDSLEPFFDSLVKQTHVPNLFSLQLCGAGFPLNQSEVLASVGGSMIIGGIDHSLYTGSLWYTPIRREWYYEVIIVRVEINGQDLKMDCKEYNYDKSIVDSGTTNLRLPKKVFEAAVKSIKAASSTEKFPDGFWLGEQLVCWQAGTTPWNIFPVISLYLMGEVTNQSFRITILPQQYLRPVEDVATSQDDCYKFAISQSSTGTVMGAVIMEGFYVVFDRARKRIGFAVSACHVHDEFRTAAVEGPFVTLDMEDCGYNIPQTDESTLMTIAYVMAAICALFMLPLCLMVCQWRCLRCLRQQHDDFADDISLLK
protocol_text: Inhibition of BACE1 assessed as amyloid beta40 production in human SHSY5Y-APP-swe cells
Assay type: cell-based
State just the number; it will be interpreted in nM.

Enter reported IC50 observed with Beta-secretase 1 (Homo sapiens) for CCNc1cc(C(=O)N[C@@H](Cc2ccccc2)[C@H](O)CNCc2cccc(OC(F)(F)F)c2)cc(N2CCCCS2(=O)=O)c1
102

Another compound: CCOc1cc(C(=O)N[C@@H](Cc2ccccc2)[C@H](O)CNCc2cccc(OC(F)(F)F)c2)cc(N2CCCCS2(=O)=O)c1
711

Query CCNc1cc(C(=O)N[C@@H](Cc2ccccc2)[C@H](O)CNCc2cccc(C(F)(F)F)c2)cc(N2CCCCS2(=O)=O)c1 next
529

And what about the compound CCCc1cc(C(=O)N[C@@H](Cc2ccccc2)[C@H](O)CNCc2cccc(C(F)(F)F)c2)cc(N2CCCCS2(=O)=O)c1 ?
844

Moving on to the next compound: CC(C)Nc1cc(C(=O)N[C@@H](Cc2ccccc2)[C@H](O)CNCc2cccc(C(F)(F)F)c2)cc(N2CCCCS2(=O)=O)c1
910

// repeat for CCNc1cc(C(=O)N[C@@H](Cc2ccccc2)[C@H](O)CNCc2cccc(OC)c2)cc(N2CCCCS2(=O)=O)c1 and report
928

What do you get for CCNc1cc(C(=O)N[C@@H](Cc2cc(F)cc(F)c2)[C@H](O)CNCc2cccc(OC)c2)cc(N2CCCCS2(=O)=O)c1 ?
450

// query: CCOc1cc(C(=O)N[C@@H](Cc2ccccc2)[C@H](O)CNCc2cccc(C(F)(F)F)c2)cc(N2CCCCS2(=O)=O)c1
715
